Data credit: ChEMBL document CHEMBL1268944

Measured IC50 by item
- Test system: Plasmodium falciparum
- protocol details: Antiplasmodial activity against chloroquine-sensitive Plasmodium falciparum D6 assessed as inhibition of parasite LDH activity after 72 hrs by malstat reagent method
- Format: functional, organism-based
- setup conditions: D6, 72 h
All answers are understood in µM, so give the number only.

Worked set:
Reported IC50 for Plasmodium falciparum, given O=C(O)C1C(C(=O)NCc2ccc(C(F)(F)F)cc2)[C@H]2CC[C@@H]1O2 (stereo not given in full) ?
248

Now consider COc1ccc(NC(=O)C2C(C(=O)O)[C@@H]3CC[C@H]2O3)cc1 (stereo not given in full) and answer again.
500

Item: O=C(O)C1C(C(=O)NCCCc2ccccc2)[C@H]2CC[C@@H]1O2 (stereo not given in full)
383

Others:
What value of IC50 on Plasmodium falciparum does O=C(O)C1C(C(=O)Nc2cccc(Cl)c2)[C@H]2CC[C@@H]1O2 (stereo not given in full) have?
250

Thanks! And O=C(O)C1C(C(=O)Nc2cccc(I)c2)[C@H]2CC[C@@H]1O2 (stereo not given in full) ?
217

Try the molecule CCc1ccccc1NC(=O)C1C(C(=O)O)[C@@H]2CC[C@H]1O2 (stereo not given in full)
360
